assay: Cytotoxicity evaluation by MTT-assay; conditions: mouse, mouse fibroblast (3T3) cells
I'd appreciate it if you could supply cytotoxicity values for the items below.

Here are 4 molecules together with their reported answers.
INSERT INTO results (compound_structure_string, reported_value) VALUES
  ('O=[N+]([O-])c1ccc2nc(-c3c(O)cc(O)cc3O)[nH]c2c1', '4%'),
  ('O=[N+]([O-])c1ccc2nc(-c3ccc(O)c(O)c3)[nH]c2c1', '3.4%'),
  ('O=[N+]([O-])c1ccc2nc(-c3ccc(O)c(O)c3O)[nH]c2c1', '9.8%'),
  ('O=[N+]([O-])c1ccc2nc(-c3ccc(O)cc3)[nH]c2c1', '3.6%');

Query molecule follows.
Qu. Look up cytotoxicity for this molecule: Cc1ccc(-c2nc3cc([N+](=O)[O-])ccc3[nH]2)cc1
Ans. 59.2%
